# Tested on: ducksalad (Heteranthera limosa)
# Protocol summary: Test B flooded paddy test, ducksalad
# Format: in vivo
# Measurement parameters: Flood, 250 g ai/ha, applied to paddy water, 2-leaf stage, visual evaluation after 13 to 15 d
# Experimental: Plant species in the flooded paddy test selected from rice (Oryza sativa), sedge, umbrella (small-flower umbrella sedge, Cyperus difformis), ducksalad (Heteranthera limosa), and barnyardgrass (Echinochloa crus-galli) were grown to the 2-leaf stage for testing. […] Treated plants and controls were maintained in a greenhouse for 13 to 15 d, after which time all species were compared to controls and visually evaluated. […]
// values below are reported Plant response rating, Ducksalad (0 to 100 scale, 0 is no effect, 100 is complete control)

[
  {
    "Compound": "CC(Nc1ncc(C(F)(F)F)c(N)n1)c1cc2ccccc2s1 (racemic)",
    "Result": 15
  },
  {
    "Compound": "CC(COc1cc(Cl)cc(Cl)c1)Nc1ncc(C(F)(F)F)c(N)n1 (stereo not drawn)",
    "Result": 0
  },
  {
    "Compound": "CC[C@H](Nc1ncc(C(F)(F)F)c(N)n1)c1cc2ccc(F)cc2s1",
    "Result": 0
  },
  {
    "Compound": "CC(Nc1ncc(C(F)(F)F)c(N)n1)C1Cc2ccccc2C1 (racemic)",
    "Result": 0
  },
  {
    "Compound": "Cc1ccc2oc([C@@H](C)Nc3ncc(C(F)(F)F)c(N)n3)cc2c1",
    "Result": 0
  },
  {
    "Compound": "CC(Nc1ncc(C(F)(F)F)c(N)n1)c1coc2cccc(F)c12 (racemic)",
    "Result": 0
  }
]

Q. Report Plant response rating, Ducksalad (0 to 100 scale, 0 is no effect, 100 is complete control) for C[C@@H](Nc1ncc(C(F)(F)F)c(N)n1)c1cc2ccccc2n1C please.
A. 0

Q. // query: CC(COc1cccc(C(F)(F)F)c1)Nc1ncc(C(F)(F)F)c(N)n1 (stereo not drawn)
A. 0

Q. // query: CC[C@@H](Nc1ncc(C(F)(F)F)c(N)n1)c1cc2ccccc2s1
A. 0

Q. // query: C[C@@H](Nc1ncc(C(F)(F)F)c(N)n1)c1ccc2ccccc2c1
A. 0

Q. // query: C[C@@H](Nc1ncc(C(F)(F)F)c(N)n1)c1cc2cc(F)c(F)cc2o1
A. 0

Q. // query: CC[C@@H](Nc1ncc(C(F)(F)F)c(N)n1)c1cc2ccccc2o1
A. 60
